measured.target: T1, USP38, Q8NB14
T1 chain: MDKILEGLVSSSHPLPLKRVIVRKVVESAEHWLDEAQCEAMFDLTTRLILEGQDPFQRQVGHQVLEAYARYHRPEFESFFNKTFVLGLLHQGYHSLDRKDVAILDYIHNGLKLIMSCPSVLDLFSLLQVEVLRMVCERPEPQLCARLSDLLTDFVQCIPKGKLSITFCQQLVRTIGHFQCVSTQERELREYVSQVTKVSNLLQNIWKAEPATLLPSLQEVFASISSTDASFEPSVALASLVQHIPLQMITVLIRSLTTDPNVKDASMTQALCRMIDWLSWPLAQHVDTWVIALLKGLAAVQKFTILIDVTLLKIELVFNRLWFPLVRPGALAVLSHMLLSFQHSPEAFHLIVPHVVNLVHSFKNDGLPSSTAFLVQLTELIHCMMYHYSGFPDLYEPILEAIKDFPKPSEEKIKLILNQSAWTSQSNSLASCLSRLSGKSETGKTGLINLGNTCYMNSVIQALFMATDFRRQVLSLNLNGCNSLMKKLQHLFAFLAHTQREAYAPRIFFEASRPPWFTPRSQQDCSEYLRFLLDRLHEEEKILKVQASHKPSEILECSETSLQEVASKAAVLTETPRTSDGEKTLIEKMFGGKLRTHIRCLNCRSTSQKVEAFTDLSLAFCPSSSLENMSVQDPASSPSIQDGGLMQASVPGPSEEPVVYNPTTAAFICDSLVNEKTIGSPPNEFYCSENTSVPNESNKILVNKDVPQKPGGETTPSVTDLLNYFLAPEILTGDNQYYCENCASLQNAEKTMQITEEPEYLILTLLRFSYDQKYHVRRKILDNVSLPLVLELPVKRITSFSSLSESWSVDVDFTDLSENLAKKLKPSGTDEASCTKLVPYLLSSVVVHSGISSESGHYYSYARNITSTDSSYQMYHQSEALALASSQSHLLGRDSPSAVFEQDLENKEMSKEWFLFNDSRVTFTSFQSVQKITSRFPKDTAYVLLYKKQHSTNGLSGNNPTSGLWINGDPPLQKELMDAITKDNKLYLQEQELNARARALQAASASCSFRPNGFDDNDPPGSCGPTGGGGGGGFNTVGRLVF
protocol: median log2 fold change of GCK-ALFA target abundance (FLAG IP / Myc IP barcode read proportion) (log2 ratio); each designed protein is fused to an ALFA-tag nanobody in HEK293 cells to bring the named protein to FLAG-tagged glucokinase (GCK); Myc marks an untargeted standard; higher = target protein stabilised (more abundant)
particulars: target protein: 3xFLAG-MCP-GCK-ALFA reporter; HEK293 landing pad (RPLP)
Tag: Criterion met if measured median log2 fold change is not below 0.06, Criterion not met if it is.

Example cases with answers are listed next.
usp_38_diff_out_15_17_144 (protein) DPESEALYREALRANIASVFDEAAAIAAKRAARAEAEGNAELAAALRRLRDLLEHRDETPLADIAAAARELAALAEEAGDYRTAAIAGGVAAAAEELAEL : Criterion met
usp_38_diff_out_15_91_160 (protein) LESKLQAAKGTADWAKEMREEAEELGLEEEAALLEEVRKLAEELAKLLEELIKLEKEGAPQEEIDKLRKEAKEKEKELNEAISKAVPAAARILLARQEKE : Criterion met
usp_38_diff_out_16_109_183 (protein) SADEEAARLLAEASIKNFRNLAKEAQAALAKAQARGASADVLAALQDLADTAKAAAERIEKAIKEGKDLLAVTNAEWDAVGAAAARARELREAETRARSA : Criterion not met
usp_38_diff_out_16_25_192 (protein) SVEALLRAHDLLGEAAGYILEAKEHKDSPKARELLEKAIKSLEEALRVMKEELKIDEEKAEEIEKLIKEAKKLLKEGAPVEEVIKVLEEAVDKAADALAE : Criterion met

# next binder below
Is it the case that usp_38_diff_out_13_133_63 (protein) SAAEERRAAARARLDAAVAEVERLLEEARRALEEGDVERAERYVGEAAGVLVRTRSELMALTRDDPELRREILRRLKELERRLEELIDEVEAARREAFLA has median log2 fold change reaching or exceeding 0.06?
Criterion met
